Recorded Percent Effect values for a group of compounds are listed next.
Molecular target: Ubiquitin-activating enzyme e1, putative (Leishmania donovani (strain BPK282A1))
Sequence (whole entry): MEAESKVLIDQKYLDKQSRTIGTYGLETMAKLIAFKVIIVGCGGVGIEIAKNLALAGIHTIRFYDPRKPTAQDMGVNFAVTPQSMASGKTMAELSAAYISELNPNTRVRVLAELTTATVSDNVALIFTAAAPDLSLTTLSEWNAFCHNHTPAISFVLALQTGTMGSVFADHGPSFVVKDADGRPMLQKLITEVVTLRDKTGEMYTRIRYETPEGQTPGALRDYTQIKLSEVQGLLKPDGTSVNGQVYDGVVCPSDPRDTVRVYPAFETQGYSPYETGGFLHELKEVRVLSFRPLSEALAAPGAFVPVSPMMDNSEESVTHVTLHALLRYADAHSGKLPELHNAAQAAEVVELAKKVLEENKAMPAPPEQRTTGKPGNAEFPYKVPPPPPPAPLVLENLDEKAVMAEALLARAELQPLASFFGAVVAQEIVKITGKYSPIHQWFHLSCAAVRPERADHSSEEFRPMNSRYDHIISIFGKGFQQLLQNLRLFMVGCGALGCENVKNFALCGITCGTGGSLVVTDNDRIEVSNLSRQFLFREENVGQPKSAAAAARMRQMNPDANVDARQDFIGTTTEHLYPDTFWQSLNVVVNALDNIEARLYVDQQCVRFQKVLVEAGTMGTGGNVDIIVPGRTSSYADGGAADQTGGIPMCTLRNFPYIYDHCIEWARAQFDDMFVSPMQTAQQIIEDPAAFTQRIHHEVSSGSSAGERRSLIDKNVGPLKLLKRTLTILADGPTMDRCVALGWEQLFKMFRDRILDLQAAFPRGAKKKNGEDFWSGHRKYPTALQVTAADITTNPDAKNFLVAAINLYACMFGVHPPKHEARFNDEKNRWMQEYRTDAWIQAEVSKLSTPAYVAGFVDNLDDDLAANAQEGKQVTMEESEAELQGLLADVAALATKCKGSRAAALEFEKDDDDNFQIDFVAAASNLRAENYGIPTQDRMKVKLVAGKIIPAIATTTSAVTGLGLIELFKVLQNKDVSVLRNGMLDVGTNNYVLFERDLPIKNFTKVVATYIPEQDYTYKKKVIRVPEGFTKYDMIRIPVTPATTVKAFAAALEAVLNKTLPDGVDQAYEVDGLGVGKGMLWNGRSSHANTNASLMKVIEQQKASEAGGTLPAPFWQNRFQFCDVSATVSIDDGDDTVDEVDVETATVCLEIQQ
Assay: Leishmania donovani Ubiquitin Activating Enzyme (LdE1)
Type: functional
Set-up: scale not given: direction of the effect not stated beside the values
Details: 30 µM
Results with a measured potency or affinity are listed apart.
Attribute measured: Percent Effect (%)

INSERT INTO assay_data (compound, experimental_value) VALUES
  ('O=C(CCNS(=O)(=O)c1ccc2c(c1)CCCC2)NCc1ccoc1', 5.33),
  ('Cc1cnn(CC2CCCN2C(=O)c2nccc3ccccc23)c1 (configuration not stated)', 13),
  ('Cc1cccc(OCCC(=O)N(C)CCC#N)c1C', 2.63),
  ('COc1c(CNCCNC(=O)Cc2ccc(F)cc2)c(C)nn1C', 13.5),
  ('O=C(CNCCn1cccn1)NCC1(c2ccccc2)CC1', -2.6),
  ('O=C(c1ccc(Br)o1)N1CCCC(n2cncn2)C1 (configuration not stated)', -1.39),
  ('O=C(CSc1ccccc1Cl)NS(=O)(=O)c1ccc2c(c1)OCCO2', -21.1);
